B1: mRNA-splicing (parent)
chain: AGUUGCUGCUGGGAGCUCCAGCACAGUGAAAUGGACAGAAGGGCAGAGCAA

Variants of: B1
Assay: exon inclusion enrichment index; higher = more inclusion; WT1 exon 5 minigene, HEK293
I'd be grateful if you could share measured exon inclusion enrichment index for these entries.
Give your answer as a number; write no unit.

Given AGUUGACGACGGGAGCUCCAGCACAGUGAAAUGGACAGAAGGGCAGAUCAA [C6A U7C C9A U10C G48U] , respond with its exon inclusion enrichment index.
3.83

Given AGAAACCACCGGGAGCUCCAGCACAGUGAAAUGGACAGAAGGGCAGAGCAA [U3A U4A G5A U7C G8A U10C] , respond with its exon inclusion enrichment index.
2.15

Given AGUUCUUCUCGUUAGCUCCAGCACAGUGAAAUGGACAGAAGGGCAGAGCAA [G5C C6U G8C C9U U10C G12U G13U] , respond with its exon inclusion enrichment index.
0.0261

Given AGUUGAAGAAGGGAGCUCCAGCACAGUGAAAUGGACAGAAGGGCAGUACAA [C6A U7A C9A U10A A47U G48A] , respond with its exon inclusion enrichment index.
0.579

Given AGUUCGCGCCGGGAGCUCCAGCACAGUGAAAAGGACAGAAGGGCAGAGCAA [G5C C6G U7C U10C U32A] , respond with its exon inclusion enrichment index.
3.12

Given AGUUAUAUAUGGGAGCUCCAGCACAGGCAAAUGGACAGAAGGGCAGAGCAA [G5A C6U U7A G8U C9A U27G G28C] , respond with its exon inclusion enrichment index.
0.0308

Given AGUUACCACCGGGAGCUCCAGCACAGCAAAAUGGACAGAAGGGCAGAGCAA [G5A U7C G8A U10C U27C G28A] , respond with its exon inclusion enrichment index.
2.31

Given AGUUCUUCUCGGGAGCUCCAGCACAGUGAAAUGGAGCGAAGGGCAGAGCAA [G5C C6U G8C C9U U10C C36G A37C] , respond with its exon inclusion enrichment index.
0.671

Given AGUUAUAUAGCGGAGCUCCAGCACAGUGAAAUGGACAGAAGGGCAGAGCAA [G5A C6U U7A G8U C9A U10G G11C] , respond with its exon inclusion enrichment index.
0.022

Given AGUUAUAUAUGGGAGCUCCUGCACAGUGAAAUGGACAGAAGGGCAGAGCAA [G5A C6U U7A G8U C9A A20U] , respond with its exon inclusion enrichment index.
0.0779

Given AGUUAUAUAUGGGAGCCCCAGCACAGUGAAAUGGACAGAAGGGCAGAGCAA [G5A C6U U7A G8U C9A U17C] , respond with its exon inclusion enrichment index.
0.0376

Given AGUUGACGACGGGAGCUCCAGCACAGUGACCUGGACAGAAGGGCAGAGCAA [C6A U7C C9A U10C A30C A31C] , respond with its exon inclusion enrichment index.
4.36

Given AGUUGACGACGGGAGCUCCAGCACAGUGAAAUGGCGAGAAGGGCAGAGCAA [C6A U7C C9A U10C A35C C36G] , respond with its exon inclusion enrichment index.
2.56

Given AGUUCUUCUCGGGAGCGACAGCACAGUGAAAUGGACAGAAGGGCAGAGCAA [G5C C6U G8C C9U U10C U17G C18A] , respond with its exon inclusion enrichment index.
2

Given AGUUGCUGCUGGGAGCUCCAGCACAGUGAGAUGGACAGAAGGGCAGAGCAA [A30G] , respond with its exon inclusion enrichment index.
0.182

Given AGUUGAAGAAGGGAGCUCCAGUACAGUGAAAUGGACAGAAGGGCAGAGCAA [C6A U7A C9A U10A C22U] , respond with its exon inclusion enrichment index.
0.414

Given AGUUCGCGCCGGGAGCUCCAGCACAGUGAAAUGGAGGGAAGGGCAGAGCAA [G5C C6G U7C U10C C36G A37G] , respond with its exon inclusion enrichment index.
1.19

Given AGUUCUUCUCGGGAGCUCCAGCACAGUGAUCUGGACAGAAGGGCAGAGCAA [G5C C6U G8C C9U U10C A30U A31C] , respond with its exon inclusion enrichment index.
1.95

Given AGUUGAAGAAAAGAGCUCCAGCACAGUGAAAUGGACAGAAGGGCAGAGCAA [C6A U7A C9A U10A G11A G12A] , respond with its exon inclusion enrichment index.
1.79

Given AGUUACCACCGGGAGCUCCAGCACAGUGAAAUGGACAGAAGGGCAUCGCAA [G5A U7C G8A U10C G46U A47C] , respond with its exon inclusion enrichment index.
2.94

Given AGUUAUAUAUGGGAGCUCCAGCACAGUGAAAUGGUAAGAAGGGCAGAGCAA [G5A C6U U7A G8U C9A A35U C36A] , respond with its exon inclusion enrichment index.
0.000817

Given AGUUAGGGAUGGGAGCUCCAGCACAGUGAAUGGGACAGAAGGGCAGAGCAA [G5A C6G U7G C9A A31U U32G] , respond with its exon inclusion enrichment index.
0.0027

Given AGUUACCACCGGGAGCUCCAGCACAGUGAAAUGCACAGAAGGGCAGAGCAA [G5A U7C G8A U10C G34C] , respond with its exon inclusion enrichment index.
0.949

Given AGUUCUUCUCGGGAGCUCCAGCACAGUGAAAUGGACAGAAGGGCAGCGCAA [G5C C6U G8C C9U U10C A47C] , respond with its exon inclusion enrichment index.
2.38

Given AGUUCGCUGCGGGAGCUCCAGCACAGUGAAAUGGACAGAAGGGCAGAGCAA [G5C C6G U7C G8U C9G U10C] , respond with its exon inclusion enrichment index.
2.53

Given AGUUGCUGCUGGGAGCUCAAGCACAGUGAAAUGGACAGAAGGGCAGAGCAA [C19A] , respond with its exon inclusion enrichment index.
1.49

Given AGUUUCUUUUGGGAGCUCCAGCACAACGAAAUGGACAGAAGGGCAGAGCAA [G5U G8U C9U G26A U27C] , respond with its exon inclusion enrichment index.
0.838

Given AGUUCUUCUCGGGAGCUCCAGCACAGUGAAAUGGACAGAAGGGCAAGGCAA [G5C C6U G8C C9U U10C G46A A47G] , respond with its exon inclusion enrichment index.
0.717

Given AGUUCGAGAAGGGAGCUCCAGCACAGUGAAAUGGACAGAAGGGCAGAGCAA [G5C C6G U7A C9A U10A] , respond with its exon inclusion enrichment index.
0.95

Given AGUUGAAGAAGGGAGCUCCAGCACAGUGAAAUGGACUGAAGGGCAGAGCAA [C6A U7A C9A U10A A37U] , respond with its exon inclusion enrichment index.
0.746

Given AGUUAGGGAUGGGAGCUCCAGCACAGUGAAAUGGACAGAAGGGCAAGGCAA [G5A C6G U7G C9A G46A A47G] , respond with its exon inclusion enrichment index.
0.00174

Given AGUUCACACAGGGAGCUCCAGCACAGUGAAAUGGAUAGAAGGGCAGAGCAA [G5C C6A U7C G8A U10A C36U] , respond with its exon inclusion enrichment index.
0.0372

Given AGUUACCACCGUAAGCUCCAGCACAGUGAAAUGGACAGAAGGGCAGAGCAA [G5A U7C G8A U10C G12U G13A] , respond with its exon inclusion enrichment index.
0.238

Given AGUUAUAUAUGGGAGCUCCAGUUCAGUGAAAUGGACAGAAGGGCAGAGCAA [G5A C6U U7A G8U C9A C22U A23U] , respond with its exon inclusion enrichment index.
0.0179

Given AGUUCACACAGGGAGCUCCAGCACCGUGAAAUGGACAGAAGGGCAGAGCAA [G5C C6A U7C G8A U10A A25C] , respond with its exon inclusion enrichment index.
0.77

Given AGACCGCGCCGGGAGCUCCAGCACAGUGAAAUGGACAGAAGGGCAGAGCAA [U3A U4C G5C C6G U7C U10C] , respond with its exon inclusion enrichment index.
3.45

Given AGUUUCAAUUGGGAGCUCCAGCACAGUGAAAUGGACAGAAGGGCAGAGCAA [G5U U7A G8A C9U] , respond with its exon inclusion enrichment index.
0.454

Given AGUUCGCGCCGGGAGCUCCAGCACAGUGAAAUGGACAGAAGGGCACGGCAA [G5C C6G U7C U10C G46C A47G] , respond with its exon inclusion enrichment index.
3.52

Given AGUUCACACAGGGAGCUCCAGCACAGUGAAAUGGACAGCGGGGCAGAGCAA [G5C C6A U7C G8A U10A A39C A40G] , respond with its exon inclusion enrichment index.
0.142

Given AGUUACCACCCAGAGCUCCAGCACAGUGAAAUGGACAGAAGGGCAGAGCAA [G5A U7C G8A U10C G11C G12A] , respond with its exon inclusion enrichment index.
0.351

Given AGUUCUUCUCGGGAGCUCCAGCACAGUGAAAUGGACAGAAGGUCAGAGCAA [G5C C6U G8C C9U U10C G43U] , respond with its exon inclusion enrichment index.
1.51

Given AGUUUCUUUUGGGAGCUCCAAUACAGUGAAAUGGACAGAAGGGCAGAGCAA [G5U G8U C9U G21A C22U] , respond with its exon inclusion enrichment index.
0.0464

Given AGUUGAAGAAGGGAGCUCCAGCACAGUGAAAUGGACAGAAGGCAAGAGCAA [C6A U7A C9A U10A G43C C44A] , respond with its exon inclusion enrichment index.
2.09

Given AGUUGGUGAAGGGAGCUCCAGCACAGUGAAAUGGACAGAAGGGCAGAGCAA [C6G C9A U10A] , respond with its exon inclusion enrichment index.
0.229

Given AGUUCACACAGGGAGCUCCAGCACAGUGAAAAGGACAGAAGGGCAGAGCAA [G5C C6A U7C G8A U10A U32A] , respond with its exon inclusion enrichment index.
0.0862

Given AGUUCUUCUCGGGAGCUCCAGCACAGUGAAAUGGUAAGAAGGGCAGAGCAA [G5C C6U G8C C9U U10C A35U C36A] , respond with its exon inclusion enrichment index.
0.00287
